Source of measurements: ChEMBL document CHEMBL2390874

System: Staphylococcus aureus
Measurement protocol: Antibacterial activity against Staphylococcus aureus ATCC 25923 assessed as growth inhibition at 1 mg/ml after 24 hrs by agar diffusion method
Format: functional
Condition summary: ATCC 25923, 24 h, read-out: DIZ
Recorded zone of inhibition at 1000 µg/mL by entry
Hi! Could you send only the number? It should be in mm, unit omitted.

Structure	Test target	Test value
N#Cc1c(N2CCCC2)n[nH]c1N	Staphylococcus aureus	10
Cc1ccc(C)n1-c1[nH]nc(N2CCOCC2)c1C#N	Staphylococcus aureus	10
Cc1ccc(C)n1-c1[nH]nc(N2CCCC2)c1C#N	Staphylococcus aureus	7
N#Cc1nnc2c(C#N)c(N3CCCCC3)nn2c1N	Staphylococcus aureus	11
CC(=O)n1nc(N2CCCCC2)c(C#N)c1N	Staphylococcus aureus	10

Proceed to the following item.
In plain terms, CC(=O)c1nnc2c(C#N)c(N3CCCCC3)nn2c1C has a documented zone of inhibition at 1000 µg/mL of 9

* * *

Tested on: Staphylococcus aureus
Measurement protocol: Bactericidal activity against Staphylococcus aureus ATCC 25923 by broth dilution method
Assay type: functional
Endpoint: MBC

Example entries begin here.
Structure	MBC
CC(=O)n1nc(N2CCCC2)c(C#N)c1N	> 16 mg/mL
CC(=O)n1nc(N2CCCCC2)c(C#N)c1N	> 16 mg/mL

Proceed to the following item.
Per the records, this compound ( N#Cc1c(N2CCOCC2)n[nH]c1N ) has MBC equal to > 16 mg/mL
